Origin of measurements: PubChem BioAssay (NCI)

test system: HCC-2998 colon; assay: NCI-60 one-dose screen, 48 h; details: 10 µM
This is part of a sample that, as a whole, favours compounds with a hit. Of some 83,000 tested, about 20% had one in any assay. Calls of active or inactive are those of the source. Rule for the calls: active = growth percent below 10; inactive = the rest.
Classes used: true (1) = active, false (0) = inactive

>>> category("N#CC(=C1C=CC(=NO)C=C1)c1ccccc1")
"false (0)"
>>> category("O=c1[nH]cc(/C=N\\Nc2ccccc2)c(=O)[nH]1")
"false (0)"
>>> category("O=C(O)c1ccccc1.[Ag]")
"false (0)"
>>> category("Nc1nc(N)c2cc(Sc3ccc4ccccc4c3)ccc2n1")
"true (1)"
>>> category("C=C1N(C)c2ccc(Cl)cc2C1(C)C")
"false (0)"
>>> category("O=[N+]([O-])c1cc(S(=O)(=O)Nc2ccccc2)ccc1Cl")
"false (0)"
>>> category("N#C/C(=C/N1C(=O)/C(=C/c2ccc([N+](=O)[O-])cc2)SC1=S)c1nc2ccccc2s1")
"false (0)"
>>> category("O=S(=O)(c1cc(Cl)ccc1O)c1cc(Cl)ccc1O")
"false (0)"
>>> category("S=C1SCN(CCc2ccccc2)CN1CCc1ccccc1")
"false (0)"
>>> category("CN(CC(=O)O)c1ccc(/C=C/c2ccnc3ccccc23)cc1")
"false (0)"
>>> category("Cc1cc(Cl)ccc1NC(=O)/C(Cl)=C1/Sc2ccccc2NC1=O")
"false (0)"
>>> category("CCOC(=O)[C@]1(Br)CC[C@@]1(Br)C(=O)OCC")
"false (0)"
